# Tested on: T47D
# measurement notes: In vitro cytotoxicity against T47D human breast cancer cell line with ER negative
# Format: functional, cell-based

# molecular string, IC50
rows = [
    ("Nc1ccc(-c2nc3ccccc3s2)cc1", "> 10 µM"),
]

----------
# Test system: IGR-37 cell line
# measurement notes: In vitro cytotoxicity against […] human melanoma cancer cell line
# Assay type: functional, cell-based

# molecular string, IC50
rows = [
    ("Nc1ccc(-c2nc3ccccc3s2)cc1", "> 30 µM"),
]

----------
# System: A204
# measurement notes: In vitro cytotoxicity against A204 human rhabdomyosarcoma cancer cell line
# Type: functional, cell-based

# molecular string, experimental system, IC50
records = [
    ("Nc1ccc(-c2nc3ccccc3s2)cc1", "A204", "> 30 µM"),
]

----------
# System: MDA-MB-468
# measurement notes: In vitro cytotoxicity against MDA 468 human breast cancer cell line with ER negative EGFR positive
# Format: functional, cell-based
pIC50: −log10 of the molar value.

# molecular string, pIC50
data = [
    ("Nc1ccc(-c2nc3ccccc3s2)cc1", 8.80),
]
